Source: patent US20260152527A1

Attribute: MC4R IC50
# Assayed target: human recombinant MC4R (CHO-K1/Gα15 stable cell line, GenScript) (human, UniProt P32245 1-332)
# Sequence (P32245 whole entry): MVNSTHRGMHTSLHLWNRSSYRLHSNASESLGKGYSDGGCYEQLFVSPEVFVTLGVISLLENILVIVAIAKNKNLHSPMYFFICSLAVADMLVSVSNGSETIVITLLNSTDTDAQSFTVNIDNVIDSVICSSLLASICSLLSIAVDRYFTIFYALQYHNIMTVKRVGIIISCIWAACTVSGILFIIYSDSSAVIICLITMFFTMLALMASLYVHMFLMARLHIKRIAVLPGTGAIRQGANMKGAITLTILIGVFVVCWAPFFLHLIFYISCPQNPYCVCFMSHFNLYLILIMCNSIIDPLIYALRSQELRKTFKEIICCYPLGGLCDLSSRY
# Experiment: cell-based or functional assay
Positions of bridges follow the written chain, without caps; N, C: chain ends. Non-standard residues stand in square brackets, D forms with d. *: point of attachment. Benzoyl(3,5-(OH)2) = O=C(c1cc(O)cc(O)c1)*; Lys(N3) = [N-]=[N+]=NCCCC[C@H](N)C(=O)O; dPhe(4-F) = N[C@H](Cc1ccc(F)cc1)C(=O)O; S5 = C=CCCC[C@](C)(N)C(=O)O; Nle = CCCC[C@H](N)C(=O)O; Pra = C#CC[C@H](N)C(=O)O
Metric: MC4R IC50 (nM)

>  <Binder>
Ac-[Nle][Lys(N3)]H[dF]RW[Pra]-NH2 (bridge 2-7; not fully specified (bridges); printed as Ac-Nle-[Lys(N3)-His-DPhe-Arg-Trp-Pra]-NH2) [KR-009]

>  <Result>
45.7

$$$$
>  <Binder>
Ac-[Nle][S5]H[dF]RW[S5]-NH2 (staple 2-7) [KR-039]

>  <Result>
35.4

$$$$
>  <Binder>
Ac-[Nle]EHFRWGK-NH2 (SMILES CCCC[C@H](NC(C)=O)C(=O)N[C@@H](CCC(=O)O)C(=O)N[C@@H](Cc1c[nH]cn1)C(=O)N[C@@H](Cc1ccccc1)C(=O)N[C@@H](CCCNC(=N)N)C(=O)N[C@@H](Cc1c[nH]c2ccccc12)C(=O)NCC(=O)N[C@@H](CCCCN)C(N)=O) [KR-035]

>  <Result>
59.6

$$$$
>  <Binder>
{Benzoyl(3,5-(OH)2)}-[Nle][Lys(N3)]H[dPhe(4-F)]RW[Pra]-NH2 (triazole 2-7; not fully specified; printed as HyBA-Nle-[Lys(N3)-His-Dphe(4-F)-Arg-Trp-Pra]-NH2) [KR-072]

>  <Result>
98.6

$$$$
